# System: SK-MEL-5 melanoma
# Assay Explanation: NCI tumour cell line growth inhibition, 48 h
We use 30 µM as the dividing line for TGI: on or above the line is 1 (yes), below is 0 (no).

Does the compound "COc1cc(C(=O)NN=C2c3ccccc3-c3ccccc32)cc(OC)c1OC" have recorded TGI that is 30 µM or more?
0 (no)

// repeat for "Cc1c(Cl)c(C)c(Cl)c(O)c1Cl" and report
1 (yes)

###

# System: LOX IMVI melanoma
# Assay Explanation: NCI tumour cell line growth inhibition, 48 h; in the data active = GI50 below about 0.43 µM; inactive = the rest
# output must be one of active, inactive

Record excerpt, results attached:
- CC(=O)Nc1cc2c3c(cccc3c1)-c1ccccc1-2: inactive
- COc1ncc(-c2ccc3nccc(C#CCCCCC(=O)NO)c3c2)cc1NS(=O)(=O)c1ccc(F)cc1F: active
- COc1ccc(/C=C/C(=O)/C=C(O)/C=C/c2ccc(OC)c(OC)c2)cc1OC: inactive

For this compound, state the assay outcome: "Cc1cc(-c2cc(OC(=O)c3ccccc3)ccc2Cl)cc2nnc(Nc3ccc(OCCN4CCCC4)cc3)nc12"
inactive
